Measured IC50 by item
Target: CREBBP (Homo sapiens (Human), UniProt Q92793)
Sequence (Q92793 1081-1197): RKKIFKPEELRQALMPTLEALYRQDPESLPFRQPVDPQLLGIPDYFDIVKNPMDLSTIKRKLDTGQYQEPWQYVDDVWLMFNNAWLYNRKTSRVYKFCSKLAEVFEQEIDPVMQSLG
Assay: In vitro enzyme inhibition assay - CREBBP inhibition (AlphaScreen, biotinylated H4-tetraacetyl peptide)
Format: binding
Conditions: Table 28; AlphaScreen, H4-tetraacetyl peptide

Below, each entry is followed by its recorded IC50 result.
• Cc1cc(-c2cc(NS(=O)(=O)C(C)C)nc(Oc3ccc(F)cc3F)n2)cn(C(C)C)c1=O = 0.5 to 5 µM
• Cc1cccc(F)c1Oc1nc(NS(=O)(=O)C(C)C)cc(-c2ccc(=O)n(C)c2)n1 = < 0.5 µM
• COc1cccc(F)c1Oc1nc(NS(=O)(=O)C(C)C)cc(-c2ccc(=O)n(C)c2)n1 = < 0.5 µM

Form field: reported IC50 of CCCCNc1cc(-c2ccc(=O)n(C)c2)nc(OC)n1
0.5 to 5 µM

Next entry: CCCC(C)S(=O)(=O)Nc1cc(-c2ccc(=O)n(C)c2)nc(Oc2c(C)cccc2F)n1 (centres unmarked)
< 0.5 µM

====

Molecular target: CREBBP (Homo sapiens (Human))
Experiment: In vitro enzyme inhibition assay - CREBBP inhibition (AlphaScreen, biotinylated H4-tetraacetyl peptide)
Format: binding
Conditions: Table 28; AlphaScreen, H4-tetraacetyl peptide
measurement_name: IC50

- Cc1ccc(Cl)c(Oc2nc(NS(=O)(=O)CCC(C)C)cc(-c3ccc(=O)n(C)c3)n2)c1F: < 500 nM
- CCCC(C)Nc1cc(-c2ccc(=O)n(C)c2)nc(OC)n1 (centres unmarked): 500 to 5000 nM
- COc1nc(NCc2ccccn2)cc(-c2ccc(=O)n(C)c2)n1: < 500 nM
- CCCCS(=O)(=O)Nc1cc(-c2cc(C)c(=O)n(C)c2)nc(Oc2cc(C)ccc2C#N)n1: < 500 nM
- CCCS(=O)(=O)Nc1cc(-c2cc(C)c(=O)n(C)c2)nc(Oc2c(Cl)cccc2CC)n1: < 500 nM

IC50 of CCc1cccc(F)c1Oc1nc(NS(=O)(=O)C(C)CC)cc(-c2ccc(=O)n(C)c2)n1 (centres unmarked) on CREBBP (Homo sapiens (Human))?
< 500 nM

Next entry: Cc1cccc(Cl)c1Oc1nc(-c2cc(C)c(=O)n(C)c2)cc(S(C)(=O)=O)n1
< 500 nM

Next entry: CCCCS(=O)(=O)Nc1cc(-c2cn(C)c(=O)c3ccccc23)nc(Oc2c(C)cccc2C)n1
500 to 5000 nM

Next entry: CCCCS(=O)(=O)Nc1cc(-c2cc(C)c(=O)n(C)c2)nc(Oc2c(F)cccc2Cl)n1
< 500 nM

Next entry: CCCCn1cc(-c2cc(NS(=O)(=O)C(C)C)nc(Oc3ccc(F)cc3F)n2)cc(C)c1=O
> 5000 nM

Next entry: Cc1cccc(Cl)c1Oc1nc(NCCC(C)C)cc(-c2ccc(=O)n(C)c2)n1
< 500 nM

Next entry: CCC(CC)S(=O)(=O)Nc1cc(-c2ccc(=O)n(C)c2)nc(Oc2c(C)cccc2F)n1
< 500 nM

Next entry: Cn1cc(-c2cc(NCc3ccccc3)nc(Oc3ccc(F)cc3F)n2)ccc1=O
< 500 nM

Next entry: Cc1cccc(F)c1Oc1nc(NS(=O)(=O)CCC(C)C)nc(-c2cc(C)c(=O)n(C)c2)n1
< 500 nM

====

Measured pIC50 by item
Target: BRD4 (Homo sapiens (Human), UniProt O60885)
Assay: In vitro enzyme inhibition assay - BRD4 inhibition (as described in U.S. Pat. No. 9,034,900)
Settings: Table 29; BRD4 BD1
pIC50: −log10 of the molar value.

Form field: reported pIC50 of CCCCS(=O)(=O)Nc1cc(-c2cc(C)c(=O)n(C)c2)nc(Oc2c(C)cccc2C)n1
< 5.30

Next entry: Cc1cc(Cl)cc(Cl)c1Oc1nc(NS(=O)(=O)C(C)C)cc(-c2cc(C)c(=O)n(C)c2)n1
< 5.30

Next entry: Cc1cc(-c2nc(NS(C)(=O)=O)ncc2Oc2ccc(F)cc2F)cn(C)c1=O
> 6.30

Next entry: CCCCS(=O)(=O)Nc1cc(-c2cc(C)c(=O)n(C)c2)nc(Oc2c(Cl)cccc2CC)n1
< 5.30

Next entry: Cc1cccc(Cl)c1Oc1nc(NS(=O)(=O)C(C)C)cc(-c2cc(C)c(=O)n(C)c2)n1
5.30 to 6.30

Next entry: CCCCS(=O)(=O)Nc1cc(-c2cc(Cl)c(=O)n(C)c2)nc(Oc2c(C)cccc2C)n1
< 5.30

Next entry: CCS(=O)(=O)Nc1ncc(Oc2ccc(F)cc2F)c(-c2cc(C)c(=O)n(C)c2)n1
> 6.30

Next entry: CCCCS(=O)(=O)Nc1cc(-c2ccc(=O)n(C)c2)nc(Oc2c(C)cccc2F)n1
< 5.30

Next entry: CCS(=O)(=O)Nc1ncc(Oc2ccc(F)cc2F)c(-c2cc(C)c(=O)n(CC3CC3)c2)n1
> 6.30

Next entry: CCCCS(=O)(=O)Nc1cc(-c2cc(C)c(=O)n(C)c2)nc(Oc2c(C)cccc2Cl)n1
5.30 to 6.30

Next entry: COc1cccc(C#N)c1Oc1nc(NS(=O)(=O)C(C)C)cc(-c2cc(C)c(=O)n(C)c2)n1
< 5.30

Next entry: Cc1cc(-c2cc(NS(=O)(=O)C3CCCC3)nc(Oc3ccc(F)cc3F)n2)cn(C)c1=O
5.30 to 6.30

====

Molecular target: CREBBP (Homo sapiens (Human), UniProt Q92793)
Assay: In vitro enzyme inhibition assay - CREBBP inhibition (AlphaScreen, biotinylated H4-tetraacetyl peptide)
Assay type: binding
Details: Table 29
Measured IC50 by item

Below, each entry is followed by its recorded IC50 result.
- CCCCS(=O)(=O)Nc1cc(-c2cc(C)c(=O)n(C)c2)nc(Oc2c(C)cccc2Cl)n1: < 500 nM
- CCS(=O)(=O)Nc1ncc(Oc2ccc(F)cc2F)c(-c2cc(C)c(=O)n(C)c2)n1: > 5000 nM
- Cc1cc(-c2nc(NS(C)(=O)=O)ncc2Oc2ccc(F)cc2F)cn(C)c1=O: > 5000 nM
- CCCCS(=O)(=O)Nc1cc(-c2cc(C)c(=O)n(C)c2)nc(Oc2c(C)cccc2C)n1: < 500 nM
- Cc1sc2c(c1C)C(c1ccc(Cl)cc1)=N[C@@H](CC(=O)OC(C)(C)C)c1nnc(C)n1-2 [JQ-1, reference compound]: > 5000 nM

IC50 of CCS(=O)(=O)Nc1ncc(Oc2ccc(F)cc2F)c(-c2cc(C)c(=O)n(CC3CC3)c2)n1 on CREBBP (Homo sapiens (Human), UniProt Q92793)?
> 5000 nM

Next entry: Cc1cc(-c2cc(NS(=O)(=O)C3CCCC3)nc(Oc3ccc(F)cc3F)n2)cn(C)c1=O
< 500 nM

Next entry: CCCCS(=O)(=O)Nc1cc(-c2ccc(=O)n(C)c2)nc(Oc2c(C)cccc2F)n1
< 500 nM

Next entry: COc1cccc(C#N)c1Oc1nc(NS(=O)(=O)C(C)C)cc(-c2cc(C)c(=O)n(C)c2)n1
< 500 nM

Next entry: CCCCS(=O)(=O)Nc1cc(-c2cc(Cl)c(=O)n(C)c2)nc(Oc2c(C)cccc2C)n1
< 500 nM

Next entry: Cc1cccc(Cl)c1Oc1nc(NS(=O)(=O)C(C)C)cc(-c2cc(C)c(=O)n(C)c2)n1
< 500 nM

Next entry: Cc1cc(Cl)cc(Cl)c1Oc1nc(NS(=O)(=O)C(C)C)cc(-c2cc(C)c(=O)n(C)c2)n1
< 500 nM

Next entry: CCCCS(=O)(=O)Nc1cc(-c2cc(C)c(=O)n(C)c2)nc(Oc2c(Cl)cccc2CC)n1
< 500 nM

====

Target: CREBBP (Homo sapiens (Human))
Experiment: In vitro enzyme inhibition assay - CREBBP inhibition (AlphaScreen, biotinylated H4-tetraacetyl peptide)
Format: binding
Settings: Table 28; AlphaScreen, H4-tetraacetyl peptide
measurement_name: IC50

• Cn1cc(-c2cc(NS(=O)(=O)CCCF)nc(Oc3c(F)cccc3Cl)n2)ccc1=O = < 500 nM
• CCCCS(=O)(=O)Nc1cc(-c2cc(C)c(=O)n(C)c2)nc(Oc2c(C)cc(Cl)cc2Cl)n1 = < 500 nM
• Cc1cccc(Cl)c1Oc1nc(N)cc(-c2ccc(=O)n(C)c2)n1 = < 500 nM
• COC(C)CS(=O)(=O)Nc1cc(-c2cc(C)c(=O)n(C)c2)nc(Oc2c(C)cccc2C)n1 (centres unmarked) = < 500 nM
• CCCCNc1cc(-c2ccc(=O)n(C)c2)nc(Oc2c(C)cccc2C#N)n1 = < 500 nM

Form field: reported IC50 of CCS(=O)(=O)Nc1nc(Oc2c(C)cccc2F)nc(-c2ccc(=O)n(C)c2)n1
< 500 nM

Next entry: CCCS(=O)(=O)Nc1cc(Oc2c(C)cccc2Cl)nc(-c2cc(C)c(=O)n(C)c2)n1
< 500 nM

Next entry: CCCS(=O)(=O)Nc1nc(Oc2c(C)cccc2C)nc(-c2cc(C)c(=O)n(C)c2)c1C
< 500 nM

Next entry: Cc1cccc(F)c1Oc1nc(NC(C)c2ccccc2)cc(-c2ccc(=O)n(C)c2)n1 (centres unmarked)
< 500 nM

Next entry: CCC(C)S(=O)(=O)Nc1cc(-c2ccc(=O)n(C)c2)nc(Oc2c(C)ccc(F)c2F)n1 (centres unmarked)
< 500 nM

Next entry: CCCCS(=O)(=O)Nc1cc(-c2cc(C)c(=O)n(C)c2)nc(Oc2c(C)cccc2C)n1
< 500 nM

Next entry: CCCCS(=O)(=O)Nc1cc(-c2cc(C)c(=O)n(C)c2)nc(Oc2c(C)cc(F)cc2Cl)n1
< 500 nM

Next entry: CC[C@H](C)S(=O)(=O)Nc1cc(-c2ccc(=O)n(C)c2)nc(Oc2c(F)cccc2Cl)n1
< 500 nM

Next entry: CCC[C@H](C)Nc1cc(-c2ccc(=O)n(C)c2)nc(Oc2c(C)cccc2C#N)n1
< 500 nM

Next entry: CC[C@@H](C)S(=O)(=O)Nc1cc(-c2ccc(=O)n(C)c2)nc(Oc2c(C)cccc2Cl)n1
< 500 nM

Next entry: Cc1cc(-c2cc(NS(=O)(=O)C(C)(C)C)nc(Oc3ccc(F)cc3F)n2)cn(C)c1=O
< 500 nM

Next entry: CCCCS(=O)(=O)Nc1cc(Oc2c(C)cccc2C)nc(-c2cc(C)c(=O)n(C)c2)n1
< 500 nM

Next entry: Cc1cccc(F)c1Oc1nc(NCc2ccccc2)cc(-c2ccc(=O)n(C)c2)n1
< 500 nM

Next entry: Cc1cc(-c2cc(NS(=O)(=O)C3CCCC3)nc(Oc3ccc(F)cc3F)n2)cn(C)c1=O
< 500 nM

Next entry: CCS(=O)(=O)Nc1nc(Oc2c(C)cccc2C)nc(-c2cc(C)c(=O)n(C)c2)n1
< 500 nM

Next entry: CCCS(=O)(=O)Nc1cc(-c2cc(C)c(=O)n(C)c2)cc(Oc2c(C)cccc2C)n1
< 500 nM

Next entry: CCCS(=O)(=O)Nc1cc(-c2cc(C)c(=O)n(C)c2)nc(Oc2c(C)cc(Cl)cc2Cl)n1
< 500 nM

Next entry: CCCCS(=O)(=O)Nc1cc(-c2ccc(=O)n(C)c2)nc(Oc2c(F)cccc2OC)n1
< 500 nM
